All values here come from PubChem BioAssay AID2314.

Test: Cycloheximide Counterscreen for Small Molecule Inhibitors of Shiga Toxin; note: read at 38.3 µM for the half of the compounds with a filed dose; 0% is about no effect
Settings: cell reporter, cycloheximide protein synthesis inhibition counterscreen
About 37,000 (12%) of roughly 300,000 compounds were called active. Cut-off read from the data, not from the text of the source: active = max response mostly above about 13% (no sharp cut-off); inactive = mostly below about 14%. Many of the other results were omitted from the sample, so actives are more common in it than they were.
Assign a class; possible classes are yes (1) = active, no (0) = inactive

- COMPOUND: "CC(=O)Nc1ccc(NC(=O)COc2ccc(-c3ccccc3)cc2)cc1"
  QUALITATIVE_LABEL: "no (0)"
- COMPOUND: "CCN(C(=O)c1cc([N+](=O)[O-])ccc1NCc1cccnc1)c1ccccc1"
  QUALITATIVE_LABEL: "no (0)"
- COMPOUND: "CCCC(=O)N1c2ccc(-c3csc(N)n3)cc2CC1C (stereo not drawn)"
  QUALITATIVE_LABEL: "yes (1)"
- COMPOUND: "Brc1ccc(Nc2c3c(nc4ncnn24)CCC3)cc1"
  QUALITATIVE_LABEL: "no (0)"
- COMPOUND: "Cc1cc(C)cc(NC(=O)CSCc2cnn(-c3ccccc3)c2-n2cccc2)c1"
  QUALITATIVE_LABEL: "no (0)"

Qu. Which outcome was assigned to Cc1ccc(OCC(=O)Nc2ccc(-c3nc4ncccc4o3)cc2)cc1 in this test?
Ans. no (0)

Qu. Also Cc1nn(Cc2ccc(Cl)cc2)c(Cl)c1/C=N/NC(=O)c1cccnc1 , if possible.
Ans. no (0)

Qu. Also O=C(CCc1ccccc1)Nc1cccc(-c2nnc(-c3ccco3)o2)c1 , if possible.
Ans. no (0)

Qu. Also COCCNC(=O)NC(=O)COC(=O)C1(c2ccc(Cl)cc2)CC1 , if possible.
Ans. no (0)

Qu. Also CCn1nc(C)c(/C=N/NC(=O)Cc2ccc(Cl)cc2)c1C , if possible.
Ans. yes (1)

Qu. Also COc1ccc(NC(=O)c2cnc(NS(=O)(=O)c3ccccc3)nc2)cc1 , if possible.
Ans. no (0)
